Test system: P. falciparum Dd2 (PfLuc) line expressing firefly luciferase, asexual blood stage
Test: microbe, parasite or virus in culture
Assay type: cell-based, Plasmodium falciparum
Conditions: Plasmodium falciparum, DD2; 11-pt dose response, 96hr; read-out: CDD P. falciparum Luciferase ABS 11-pt Reconfirmation Dose Response (96hr): Maximum inhibition (%)
Give Emax for every item shown.
Answers are plain numbers, in %.

Worked cases, Emax given:
[
  {
    "compound": "CN(Cc1cc(F)cc2cccnc12)CC1CCN(CCO)CC1 [DDD01063806]",
    "unit.abbreviation": "%",
    "Emax": 100
  },
  {
    "compound": "Cc1ccc2[nH]c(-c3cn(C4CCNCC4)nn3)nc2c1C [DDD01246711]",
    "unit.abbreviation": "%",
    "Emax": 99.2
  },
  {
    "compound": "CC(NCC1CCN(CCO)CC1)c1ccc(OC(F)(F)F)cc1 (centres unmarked) [DDD01073716]",
    "unit.abbreviation": "%",
    "Emax": 99.2
  },
  {
    "compound": "Fc1cccc(F)c1Cn1c(C2CCNCC2)cc2cccnc21 [DDD01057378]",
    "unit.abbreviation": "%",
    "Emax": 92.1
  }
]

Required: Emax, one value per compound below.
1. Clc1ccccc1C1(c2ccnc(C3CC3)n2)CCNCC1 [DDD01246037]
2. Cc1cc(-n2cccn2)ccc1CN1CCOCC(CN(C)C)C1 (centres unmarked) [DDD01247138]
3. COc1ccc(-c2ccccc2CCN)c(OC)c1OC [DDD01256178]
4. Fc1cnc(N2CCCC3(CCN(Cc4ccsc4)C3)C2)nc1 (centres unmarked) [DDD01085292]
5. O=C(c1scc2c1OCCO2)N1CCOC(CCc2ccccc2)C1 (centres unmarked) [DDD01250278]
6. CN1CCN(S(=O)(=O)c2ccc(Cl)c(Cl)c2)c2cnccc21 [DDD01077309]
7. CN1CCN(CC(NCc2ccc(F)c(F)c2)c2ccccc2)CC1 (centres unmarked) [DDD01069631]
8. CC(O)CN1CCC(CNCc2cccc(OC(F)(F)F)c2)CC1 (centres unmarked) [DDD01297560]

Out:
[93.1, 81.9, 98.8, 92.4, 100, 95.5, 94.6, 87.8]

Hi team, please reply with Emax for each item in this list.
1. Cc1cccc(NC(=O)c2cccc(OCc3nnnn3C)c2)n1 [DDD01038630]
2. CCN1CCC2(CC1)CC(NCc1ccncc1)c1ccccc1O2 (centres unmarked) [DDD01034171]
3. Cc1noc(C)c1CNCc1ccccc1N(C)C1CCN(C)CC1 [DDD01074938]
4. Cc1nn(C)cc1C1=NS(=O)(=O)N(C)C(C(=O)Nc2ccc(Cl)cc2)=C1 [DDD01058696]
5. Cc1ccccc1CNCc1cc(Cl)ccc1O [DDD01038246]

Out:
1. 99.5
2. 86
3. 86.7
4. 101
5. 89.5

Okay, here is my list. What is Emax for each of these?
1. CCOc1ccc(CN2CCCC(c3cc4ncccc4[nH]3)C2)cc1 (centres unmarked) [DDD01057418]
2. O=C(CCN1CCCC1c1cccc2c1OCCO2)N1CCCCC1 (centres unmarked) [DDD01070009]
3. NC1(C(=O)NCC2CCCN(Cc3ccccc3F)C2)CCCC1 (centres unmarked) [DDD01249015]

Out:
1. 100
2. 84.9
3. 87.8

###

Tested on: P. falciparum Dd2 (PfLuc) line expressing firefly luciferase, asexual blood stage
Experiment: microbe, parasite or virus in culture
Format: cell-based, Plasmodium falciparum
Conditions: Plasmodium falciparum, DD2; 11-pt dose response, 96hr; read-out: CDD P. falciparum Luciferase ABS 11-pt Reconfirmation Dose Response (96hr): Maximum inhibition (%)
Task for the reader: assign each of the following compounds its reported Emax.
Answers are plain numbers, in %.

Worked cases, Emax given:
[
  {
    "compound": "CCc1cc(CNCc2ccccc2N(C)C2CCN(C)CC2)on1",
    "observed": 82
  },
  {
    "compound": "CCC[C@H]1CN(S(=O)(=O)c2ccc(-c3c(C)noc3C)s2)C[C@@H]1N",
    "observed": 74.1
  },
  {
    "compound": "CCOc1ccc(Br)cc1C1CCCCN1 (stereo not drawn)",
    "observed": 90.9
  },
  {
    "compound": "NCC1[C@H]2CN(Cc3cccc(Cl)c3)C[C@@H]12 (stereo partly drawn)",
    "observed": 99
  },
  {
    "compound": "CN(C)CCN(C)C(=O)Cn1cccc2cc(-c3ccc(F)cc3)nc1-2",
    "observed": 98.3
  }
]

Provide each entry's Emax from the list below.
1. N[C@@H]1CCC[C@@H](Oc2ccc(F)cc2Oc2ccccc2)[C@@H]1O
2. CC(=O)N(c1ccc(F)cc1)c1nc(CN2CCCC2C(C)C)cs1 (stereo not drawn)
3. CC(NCC1CCN(CCO)CC1)c1ccc(F)c(Cl)c1 (stereo not drawn)
4. Cc1cc(C2CCCN(CC(=O)Nc3nc4c(s3)CCC4)C2)n[nH]1 (stereo not drawn)

Out:
[98.4, 92.1, 99.5, 97.8]

###

Can you tell me IC50 for the items I'm about to list?
Molecular target: recombinant firefly luciferase (Photinus pyralis)
Sequence (P08659 whole entry): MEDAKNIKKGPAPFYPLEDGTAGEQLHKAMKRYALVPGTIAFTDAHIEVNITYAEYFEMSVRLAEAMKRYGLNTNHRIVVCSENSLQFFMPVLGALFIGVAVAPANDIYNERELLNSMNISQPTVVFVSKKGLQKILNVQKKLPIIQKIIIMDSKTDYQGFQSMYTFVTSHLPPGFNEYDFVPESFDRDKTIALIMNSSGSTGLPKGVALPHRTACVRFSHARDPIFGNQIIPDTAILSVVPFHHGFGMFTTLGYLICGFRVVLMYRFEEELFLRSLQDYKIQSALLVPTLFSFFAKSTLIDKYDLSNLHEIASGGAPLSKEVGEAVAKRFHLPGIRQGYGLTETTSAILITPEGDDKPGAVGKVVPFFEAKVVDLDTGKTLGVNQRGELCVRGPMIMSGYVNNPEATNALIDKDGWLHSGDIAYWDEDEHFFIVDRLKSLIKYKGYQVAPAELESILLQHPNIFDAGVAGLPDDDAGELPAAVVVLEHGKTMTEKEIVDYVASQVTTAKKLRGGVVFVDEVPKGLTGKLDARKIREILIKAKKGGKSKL
Experiment: biochemical
Conditions: read-out: rLuc IC50

Please give IC50, item by item, for the list that follows.
1. Cc1ccc(-c2ccc(C3CNCCO3)nc2)cc1 (stereo not drawn)
2. c1ccc(-c2ccc(C3CNCCO3)nc2)cc1 (stereo not drawn)
3. CCS(=O)(=O)N1CCc2ccc(NC(=O)Nc3cccc(F)c3)cc21

Out:
1. 3.2 nM
2. 220 nM
3. > 25000 nM

###

Test system: P. falciparum Dd2 (PfLuc) line expressing firefly luciferase, asexual blood stage
Test: microbe, parasite or virus in culture
Assay type: cell-based, Plasmodium falciparum
Conditions: Plasmodium falciparum, DD2, read-out: CDD P. falciparum Luciferase ABS 11-pt Reconfirmation Dose Response (48hr): IC50 (μM); 11-pt dose response, 48hr
Lab note: anything with IC50 below 3 µM is marked yes (1); values at 3 µM or higher are marked no (0).

Example cases with answers are listed next.
[
  {
    "compound": "Oc1ccc(Cl)cc1CNCc1cccc(C(F)(F)F)c1",
    "category.label": "no (0)"
  },
  {
    "compound": "Oc1ccc(Cl)cc1CNCc1ccccc1Cl",
    "category.label": "no (0)"
  },
  {
    "compound": "Cc1ccccc1CNCC(O)c1ccc(OC(C)C)cc1 (stereo not drawn)",
    "category.label": "no (0)"
  },
  {
    "compound": "CCc1ccc2nc(NCCCN(CCO)CCO)cc(C)c2c1",
    "category.label": "no (0)"
  },
  {
    "compound": "CN1CCN(Cc2ccccc2Oc2nccc3occc23)CC1",
    "category.label": "no (0)"
  }
]

In: Strictly below 3 µM: is that where IC50 of CC(C)c1n[nH]c(C(=O)Nc2ccccn2)c1Br sits?
Out: no (0)

In: And CCC(C)(C)n1nnnc1C(c1cccs1)N1CCc2ccccc2C1 (stereo not drawn) ?
Out: no (0)

In: Then what about the compound Cc1ccc(CNC2CC3(CCN(CCO)CC3)c3ccccc32)s1 (stereo not drawn) ?
Out: no (0)

In: Let us now turn to CN(CCCO)Cc1cc(Cl)ccc1OCC(O)CN1CCCCCC1 (stereo not drawn)
Out: yes (1)

In: Continue with COCCN1CCC2(CC1)CC(NCc1ccc(C)s1)c1ccccc12 (stereo not drawn)
Out: no (0)

In: Try the compound COc1cccc(CNc2cc(C)nc(-c3ccncc3)n2)c1OC
Out: no (0)

In: Next record, please: NC1(C(=O)NCC2CCCN(Cc3ccccc3F)C2)CCCC1 (stereo not drawn)
Out: no (0)

In: # repeat for CC(C)(C)C(=O)NCCNCc1ccc(Cl)c2cccnc12
Out: no (0)

###

Tested on: P. falciparum Dd2
Assay: SYBR green I asexual blood stage proliferation assay (96 h)
Type: cell-based, Plasmodium falciparum
Details: Plasmodium falciparum, DD2; Sybr Green I, 11-pt dose response, 96hr; read-out: CDD P. falciparum Sybr Green I ABS 11-pt Reconfirmation Dose Response (96hr): Maximum inhibition (%)
Categorize each record by its Emax using low band (below 70%), middle band (70% to below 90%), high band (90% or more)

[
  {
    "compound": "c1cc(-c2n[nH]cc2-c2ccnc(N3CCCC3)n2)ccn1",
    "category.label": "middle band"
  }
]

In: Band for c1cc2c(cc1C1(CNC3=NCCN3)CCCC1)OCCO2 ?
Out: low band

In: Would you mind doing CCN1CCCN(S(=O)(=O)c2cc3ccccc3o2)CC1 as well?
Out: middle band

In: Same thing, different compound: CCN1CCC2(CC1)CC(NCc1cccs1)c1ccccc1O2 (stereo not drawn)
Out: middle band

In: Query COc1cccc(CN(C)Cc2[nH]c3ccccc3c2C)c1O next
Out: high band

In: Again, but for CC(C)c1nccc(C2(c3ccccc3Cl)CCNCC2)n1
Out: middle band

In: And for N[C@@H]1CCC[C@@H](Oc2ccc(F)cc2Oc2ccccc2)[C@@H]1O ?
Out: middle band

In: Could you do the same for Cc1cc(C)c(N(CC(O)CNCc2ccccc2)S(C)(=O)=O)c(C)c1 (stereo not drawn) , please?
Out: middle band

In: Same for COc1ccc(C(=O)NCCCOC(C)c2ccccc2)c(OC)c1 (stereo not drawn)
Out: middle band
